Reference source: ChEMBL document CHEMBL1146308

Molecular target: Acetylcholinesterase (Rattus norvegicus, UniProt P37136)
Sequence (P37136 whole entry): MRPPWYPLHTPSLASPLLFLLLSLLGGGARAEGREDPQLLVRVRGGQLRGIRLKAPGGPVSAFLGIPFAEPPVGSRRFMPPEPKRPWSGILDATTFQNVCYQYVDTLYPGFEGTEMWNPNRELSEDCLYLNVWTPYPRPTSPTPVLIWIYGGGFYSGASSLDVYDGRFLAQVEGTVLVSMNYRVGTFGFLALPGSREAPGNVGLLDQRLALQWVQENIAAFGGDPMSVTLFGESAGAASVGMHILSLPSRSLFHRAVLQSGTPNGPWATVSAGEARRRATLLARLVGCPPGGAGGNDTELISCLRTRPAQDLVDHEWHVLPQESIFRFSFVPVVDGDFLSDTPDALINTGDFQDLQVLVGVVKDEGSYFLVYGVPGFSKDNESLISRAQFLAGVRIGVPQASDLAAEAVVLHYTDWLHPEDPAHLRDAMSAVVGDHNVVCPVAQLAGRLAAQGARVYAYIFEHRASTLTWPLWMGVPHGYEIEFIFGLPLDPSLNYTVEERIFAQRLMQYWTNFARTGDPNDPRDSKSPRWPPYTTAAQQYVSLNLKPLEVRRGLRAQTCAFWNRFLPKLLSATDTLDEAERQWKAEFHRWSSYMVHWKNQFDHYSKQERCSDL

Line Notation	Unit Tag	IC50
CC1=C[C@H]2Cc3[nH]c(=O)ccc3[C@@]3(C1)[C@@H]2CCCN3C(=O)CCN(C)CCCCCCCCCCN(C)CCC(=O)N1CCC[C@@H]2[C@H]3C=C(C)C[C@]21c1ccc(=O)[nH]c1C3	nM	11.8
COc1ccccc1CN(C)CCCCCCCCCCN(C)CC(=O)N1CCC[C@@H]2[C@H]3C=C(C)C[C@]21c1ccc(=O)[nH]c1C3	nM	21.1
CC1=C[C@H]2Cc3[nH]c(=O)ccc3[C@@]3(C1)[C@@H]2CCCN3C(=O)CN(CC(=O)N1CCC[C@@H]2[C@H]3C=C(C)C[C@]21c1ccc(=O)[nH]c1C3)C1CC1	nM	1000
